# Tested on: MDA-MB-231
# experiment description: Cytotoxicity against human MDA-MB-231 cells assessed as inhibition of cell growth incubated for 96 hrs under hypoxic condition by MTT assay
# Assay type: functional, cell-based
# condition parameters: MDA-MB-231, 96 h
measure: IC50

Q: What does the data say about its IC50? Entry: O=c1cc(O)c2ccccc2o1 [4-HYDROXYCOUMARINS]
Ans: > 100 µM

###

# System: SiHa
# experiment description: Cytotoxicity against human SiHa cells assessed as inhibition of cell growth incubated for 24 hrs under normoxic condition by MTT assay
# Assay type: functional, cell-based
pIC50: −log10 of the molar value.
measure: pIC50

COC(=O)C1=CC[C@@]23CC[C@@H]([C@@](C)(/C=C/C=C(\C)C(=O)OCc4cn(-c5ccc(Cl)cc5)nn4)OC2=O)[C@@]3(OC(C)=O)CC1	< 4.52
COC(=O)C1=CC[C@@]23CC[C@@H]([C@@](C)(/C=C/C=C(\C)C(=O)OCc4cn(Cc5cc(OC)c(OC)c(OC)c5)nn4)OC2=O)[C@@]3(OC(C)=O)CC1	< 4.52

Consider now this further compound.
Q: Entry under review: COC(=O)C1=CC[C@@]23CC[C@@H]([C@@](C)(/C=C/C=C(\C)C(=O)OCC(=O)NCc4cn(-c5ccc(Cl)cc5)nn4)OC2=O)[C@@]3(OC(C)=O)CC1 . Reported pIC50?
Ans: < 4.52
